Test system: DU-145 prostate
Assay: NCI tumour cell line growth inhibition, 48 h
Reported TGI values for the following compounds.

compound	TGI
C=C(C(N)=O)c1ccc([N+](=O)[O-])o1	23.4 µM
COc1ccc2c(c1)NC1=C(C(=O)OC1)C2c1cc(OC)c2c(c1)OCO2 (stereo not given)	0.066 µM
Cc1ccc(S(=O)(=O)c2c(COC(=O)c3cccc(C)c3)c(-c3ccccc3)nn2C)cc1	> 100 µM
CC1=C(c2cccc(O)c2)[C@H](c2ccc(OCCN3CC(CF)C3)cc2)Oc2ccc(O)cc21	15 µM
O=C1Nc2ccc(Br)cc2C1=Nc1cccnc1	> 100 µM
ClCCCc1ccccc1C1=NCCc2ccccc21	> 100 µM
Cc1cc(S(=O)(=O)N/C(=C(\C#N)C(=O)c2ccc(Cl)cc2)[n+]2ccc(N(C)C)cc2)c([S-])cc1Cl	> 100 µM
Cc1cc(F)ccc1S(=O)(=O)Nc1cc(-c2c(O)ccc3ccccc23)c(O)c2ccccc12	14.4 µM
CCCC(=O)NC(Nc1ccc(S(=O)(=O)Nc2cc(C)on2)cc1)(C(=O)OCC)C(F)(F)F (stereo not given)	> 100 µM

Inquiry: Which TGI is reported for this compound? `[Cl][Sn]([c]1ccccc1)([c]1ccccc1)[c]1ccccc1`
Reply text: 0.428 µM

----------
System: M14 melanoma
Experiment: NCI tumour cell line growth inhibition, 48 h; in the data active means GI50 below about 0.43 µM; inactive means the rest
API: response.call in TRUE for active, FALSE for inactive

Field: example entries. Status: answers known.
COc1cc2nc(N3CCCC3)nc(NCc3ccccc3)c2cc1OC FALSE
Cc1cc2c(C(C)C)c(O)c(O)cc2c(O)c1-c1c(C)cc2c(C(C)C)c(O)c(O)cc2c1O FALSE
Cc1cc(NCCCN(C)C)c2ccc3c(ccc4c(NCCCN(C)C)cc(C)nc43)c2n1 TRUE

Inquiry: State the result this test recorded for `COc1ccc2c(CN3CCCC[C@H]3C(=O)O)cc3cc4c(cc3c2c1)OCO4` .
Reply text: FALSE

Inquiry: Please do the same for `O=C1c2cc3c(cc2[C@@H]2[C@H]1c1ccc([N+](=O)[O-])cc1C(=O)N2CCCBr)OCO3` as well.
Reply text: TRUE

Inquiry: Please do the same for `Cc1cccc(/C=N/NC(=S)N2CCCC2)n1` as well.
Reply text: TRUE

Inquiry: Please do the same for `Cc1c(C(=O)Nc2ccccc2)sc2ncn(Cc3cccc(Cl)c3)c(=O)c12` as well.
Reply text: FALSE

Inquiry: Please do the same for `NCCCC[C@@H]1NC(=O)[C@H]2CCCN2C(=O)[C@H](Cc2ccccc2)CNC(=O)[C@H](Cc2ccccc2)NC1=O` as well.
Reply text: FALSE

Inquiry: Please do the same for `C[C@H]1CC[C@@]2(NC1)O[C@H]1C[C@H]3[C@@H]4CC[C@H]5C[C@@H](O)CC[C@]5(C)[C@H]4CC[C@]3(C)[C@H]1[C@@H]2C` as well.
Reply text: FALSE

----------
Tested on: SK-OV-3 ovarian
Experiment: NCI tumour cell line growth inhibition, 48 h; in the data active means GI50 below about 0.43 µM; inactive means the rest
API: response.call in class 1 = active, class 0 = inactive

Field: example entries. Status: answers known.
compound	category
CN1CCN(C(=O)C(C)(C)c2ccc(C(=O)Nc3cn4cc(-c5ccncc5)ccc4n3)cc2)CC1	class 1
O=C(N/N=C/C=C/c1ccc([N+](=O)[O-])o1)c1cc2ccccc2cc1O	class 0
Cc1cc2c(C(C)C)c(O)c(O)cc2c(O)c1-c1c(C)cc2c(C(C)C)c(O)c(O)cc2c1O	class 0
COc1ccc(C/C(C)=C(/c2ccc(OCCN3CCCCC3)cc2)c2ccc(OC(=O)NCc3ccccc3)cc2)cc1	class 0
Cc1cc(NCCCN(C)C)c2ccc3c(ccc4c(NCCCN(C)C)cc(C)nc43)c2n1	class 1
COc1ccc2c(c1)c(CC(=O)[Se]C)c(C)n2C(=O)c1ccc(Cl)cc1	class 0

Inquiry: State the result this test recorded for `Cc1[nH]c2ccccc2c1CCCO` .
Reply text: class 0

Inquiry: Please do the same for `Cc1cc([N+](=O)[O-])c(NS(=O)(=O)c2cccc(C(=O)O)c2)cc1-c1cccnc1` as well.
Reply text: class 0

Inquiry: Please do the same for `CC1=C(c2cccc(O)c2)[C@H](c2ccc(OCCN3CC(CF)C3)cc2)Oc2ccc(O)cc21` as well.
Reply text: class 0

Inquiry: Please do the same for COc1ccc2c(c1)NC1=C(C(=O)OC1)C2c1cc(OC)c2c(c1)OCO2 (stereo not given) as well.
Reply text: class 1

Inquiry: Please do the same for `CC[C@@]1(O)C(=O)OCc2c1cc1n(c2=O)Cc2cc3cc4c(cc3nc2-1)OCO4` as well.
Reply text: class 1

Inquiry: Please do the same for `Cc1cc(C)nc(SC2=C(Nc3ccc(C)c(Cl)c3)C(=O)N(Cc3ccccc3)C2=O)n1` as well.
Reply text: class 0

Inquiry: Please do the same for `Cc1c(Cl)cccc1C(=O)Nc1nc2c(s1)CN(C(=O)c1ccc(C(F)(F)F)cc1)CC2` as well.
Reply text: class 1

Inquiry: Please do the same for `O=C(/C=C/Sc1cc(C(F)(F)F)cc(C(F)(F)F)c1)c1ccc(Cl)cc1` as well.
Reply text: class 0

Inquiry: Please do the same for `NCCCC[C@@H]1NC(=O)[C@H]2CCCN2C(=O)[C@H](Cc2ccccc2)CNC(=O)[C@H](Cc2ccccc2)NC1=O` as well.
Reply text: class 0
